- target or system: androgen receptor (AR) (Homo sapiens, UniProt P10275)
- measurement notes: Antagonism of compounds on nuclear translocation of androgen receptor (PathHunter NHR cell lines)
- cond: antagonist mode, agonist 6a-Fluorotestosterone 0.06 μM (EC80)
So basically, the class depends on measured IC50, and the ranges are bottom range (below 2 µM), center range (2 µM to below 3 µM), top range (3 µM or more)

Request: Lab log: CNC(=O)c1ccc(-n2c(=S)n(-c3ccc(C#N)c(C(F)(F)F)c3)c3ncccc32)cc1F [Compound 2] — assign IC50 category
Response: top range

Request: Lab log: CC1(C)C(=O)N(c2cnc(C#N)c(C(F)(F)F)c2)C(=S)N1c1cc(F)c2nc(C(F)F)nc(OCCO)c2c1 [Compound 26] — assign IC50 category
Response: bottom range

Request: Lab log: COc1nc(OCCO)c2cc(N3C(=S)N(c4cnc(C#N)c(C(F)(F)F)c4)C(=O)C3(C)C)cc(F)c2n1 [Compound 73] — assign IC50 category
Response: center range

Request: Lab log: COc1nc(OCCO)c2cc(N3C(=S)N(c4ccc(C#N)c(C(F)(F)F)c4)C(=O)C3(C)C)cc(F)c2n1 [Compound 71] — assign IC50 category
Response: center range

Request: Lab log: CCOc1cc(=O)n2cc(N3C(=S)N(c4cnc(C#N)c(C(F)(F)F)c4)C(=O)C3(C)C)cc(F)c2n1 [Compound 64] — assign IC50 category
Response: center range

Request: Lab log: CNC(=O)c1ccc(-n2c(=S)n(-c3ccc(C#N)c(C(F)(F)F)c3)c3nccc(C)c32)cc1F [Compound 3] — assign IC50 category
Response: bottom range

Request: Lab log: CCc1nc(OCCO)c2cc(N3C(=S)N(c4ccc(C#N)c(C(F)(F)F)c4)C(=O)C34CCC4)cc(F)c2n1 [Compound 20] — assign IC50 category
Response: bottom range

Request: Lab log: CCc1nc2ccc(N3C(=S)N(c4ccc(C#N)c(C(F)(F)F)c4)C(=O)C3(C)C)cn2c(=O)c1O [Compound 33] — assign IC50 category
Response: top range

Request: Lab log: Cc1nc(OCCO)c2cc(N3C(=S)N(c4ccc(C#N)c(C(F)(F)F)c4)C(=O)C3(C)C)ccc2n1 [Compound 9] — assign IC50 category
Response: top range

Request: Lab log: CCc1nc2c(F)cc(N3C(=S)N(c4ccc(C#N)c(C(F)(F)F)c4)C(=O)C3(C)C)cn2c(=O)c1OCCOC [Compound 40] — assign IC50 category
Response: center range

Request: Lab log: CCc1nc(-c2c[nH]cn2)c2cc(N3C(=S)N(c4ccc(C#N)c(C(F)(F)F)c4)C(=O)C3(C)C)cc(F)c2n1 [Compound 63] — assign IC50 category
Response: bottom range

Request: Lab log: CC1(C)C(=O)N(c2ccc(C#N)c(C(F)(F)F)c2)C(=S)N1c1ccc2nc(OCCO)ncc2c1 [Compound 14] — assign IC50 category
Response: top range

Request: Lab log: CCc1nc2c(F)cc(N3C(=S)N(c4ccc(C#N)c(C(F)(F)F)c4)C(=O)C3(C)C)cn2c(=O)c1OCCO [Compound 41] — assign IC50 category
Response: center range

Request: Lab log: CCc1cc(=O)n2cc(N3C(=S)N(c4ccc(C#N)c(C(F)(F)F)c4)C(=O)C3(C)C)cc(C)c2n1 [Compound 60] — assign IC50 category
Response: bottom range

---

- target or system: androgen receptor (AR) (Homo sapiens)
- measurement notes: Antagonism of compounds on nuclear translocation of androgen receptor (PathHunter NHR cell lines)
- cond: antagonist mode, agonist 6a-Fluorotestosterone 0.06 μM (EC80)
Note to self: use 1 only for IC50 readings below 3 µM; a reading exactly at 3 µM still gets -1.

Request: Please indicate whether the reported IC50 of CCc1cc(=O)n2cc(N3C(=S)N(c4ccc(C#N)c(C(F)(F)F)c4)C(=O)C3(C)C)cc(OC)c2n1 is strictly below 3 µM.
Response: -1

Request: Please indicate whether the reported IC50 of CCc1nc(OCCO)c2cc(N3C(=S)N(c4cnc(C#N)c(C(F)(F)F)c4)C(=O)C34CCC4)cc(F)c2n1 is strictly below 3 µM.
Response: 1

Request: Please indicate whether the reported IC50 of CCc1nc(OCC2COC2)c2cc(N3C(=S)N(c4ccc(C#N)c(C(F)(F)F)c4)C(=O)C3(C)C)cc(F)c2n1 is strictly below 3 µM.
Response: 1

Request: Please indicate whether the reported IC50 of CCc1nc(-c2cn[nH]c2)c2cc(N3C(=S)N(c4ccc(C#N)c(C(F)(F)F)c4)C(=O)C3(C)C)cc(F)c2n1 is strictly below 3 µM.
Response: 1

Request: Please indicate whether the reported IC50 of CC1(C)C(=O)N(c2ccc(C#N)c(C(F)(F)F)c2)C(=S)N1c1ccc2nn(C3COCC3O)cc2c1 (centres unmarked) is strictly below 3 µM.
Response: -1

Request: Please indicate whether the reported IC50 of CCc1cc(=O)n2cc(N3C(=S)N(c4ccc(C#N)c(C(F)(F)F)c4)C(=O)C3(C)C)cc(Cl)c2n1 is strictly below 3 µM.
Response: 1

Request: Please indicate whether the reported IC50 of CCc1cc(=O)n2cc(N3C(=S)N(c4ccc(C#N)c(C(F)(F)F)c4)C(=O)C3(C)C)ccc2n1 is strictly below 3 µM.
Response: 1

Request: Please indicate whether the reported IC50 of CCc1nc2ccc(-n3c(=S)n(-c4ccc(C#N)c(C(F)(F)F)c4)c4nccc(C)c43)cc2c(=O)[nH]1 is strictly below 3 µM.
Response: 1

---

- measurement notes: Pharmacokinetic test of Compound 10 in mice (intravenous and intragastric)
- Assay type: in vivo
- cond: mouse, plasma, po; intragastric administration, 2 mg/kg, male CD-1 mice; read-out: Time to Peak Tmax
measured property: Tmax (h)
Report the figure in h without appending any unit label.

// Tmax lookup, compound = CCc1nc(OCCO)c2cc(N3C(=S)N(c4ccc(C#N)c(C(F)(F)F)c4)C(=O)C3(C)C)cc(F)c2n1 , result: 4

---

- measurement notes: Pharmacokinetic test of Compound 10 in mice (intravenous and intragastric)
- Format: in vivo
- cond: mouse, plasma; intravenous administration, 1 mg/kg, male CD-1 mice; read-out: Clearance Rate CI
- Experimental: Taking male CD-1 mice as test animals, drug concentrations in plasma at different moments after intravenous and intragastric administration of Compound 10 to the mice were determined by the LC/MS/MS method. The pharmacokinetic behavior of Compound 10 in mice was investigated and its pharmacokinetic profile was evaluated. […] After intravenous and intragastric administration to the mice, the content of the test compound in plasma was determined by the LC/MS/MS method. […]
measured property: clearance (mL/min/kg)
Report the figure in mL/min/kg without appending any unit label.

// clearance lookup, compound = CCc1nc(OCCO)c2cc(N3C(=S)N(c4ccc(C#N)c(C(F)(F)F)c4)C(=O)C3(C)C)cc(F)c2n1 , result: 0.912

---

- measurement notes: Pharmacokinetic test of Compound 35 and Compound 58 in mice (intravenous and intragastric)
- Type: in vivo
- cond: mouse, plasma; intravenous administration, 1 mg/kg, male CD-1 mice; read-out: Curve Area (0-inf) AUC0-inf
measured property: AUC(0-inf) (µM·h)
Report the figure in µM·h without appending any unit label.

// AUC(0-inf) lookup, molecule = CCc1cc(=O)n2cc(N3C(=S)N(c4ccc(C#N)c(C(F)(F)F)c4)C(=O)C3(C)C)cc(F)c2n1 [Compound 35] , result: 194

// AUC(0-inf) lookup, molecule = CCc1cc(=O)n2cc(N3C(=S)N(c4ccc(C#N)c(Cl)c4)C(=O)C3(C)C)cc(F)c2n1 [Compound 58] , result: 447

---

- measurement notes: Pharmacokinetic test of Compound 35 and Compound 58 in mice (intravenous and intragastric)
- Assay type: in vivo
- cond: mouse, plasma, po; intragastric administration, 2 mg/kg, male CD-1 mice; read-out: Plasma Concentration Cmax
Assign Cmax to each entry below.
Report the figure in µM without appending any unit label.

// Cmax lookup, compound = CCc1cc(=O)n2cc(N3C(=S)N(c4ccc(C#N)c(Cl)c4)C(=O)C3(C)C)cc(F)c2n1 [Compound 58] , result: 12.8

// Cmax lookup, compound = CCc1cc(=O)n2cc(N3C(=S)N(c4ccc(C#N)c(C(F)(F)F)c4)C(=O)C3(C)C)cc(F)c2n1 [Compound 35] , result: 5.78

---

- target or system: UniProt P10275
- Sequence (P10275 1-920): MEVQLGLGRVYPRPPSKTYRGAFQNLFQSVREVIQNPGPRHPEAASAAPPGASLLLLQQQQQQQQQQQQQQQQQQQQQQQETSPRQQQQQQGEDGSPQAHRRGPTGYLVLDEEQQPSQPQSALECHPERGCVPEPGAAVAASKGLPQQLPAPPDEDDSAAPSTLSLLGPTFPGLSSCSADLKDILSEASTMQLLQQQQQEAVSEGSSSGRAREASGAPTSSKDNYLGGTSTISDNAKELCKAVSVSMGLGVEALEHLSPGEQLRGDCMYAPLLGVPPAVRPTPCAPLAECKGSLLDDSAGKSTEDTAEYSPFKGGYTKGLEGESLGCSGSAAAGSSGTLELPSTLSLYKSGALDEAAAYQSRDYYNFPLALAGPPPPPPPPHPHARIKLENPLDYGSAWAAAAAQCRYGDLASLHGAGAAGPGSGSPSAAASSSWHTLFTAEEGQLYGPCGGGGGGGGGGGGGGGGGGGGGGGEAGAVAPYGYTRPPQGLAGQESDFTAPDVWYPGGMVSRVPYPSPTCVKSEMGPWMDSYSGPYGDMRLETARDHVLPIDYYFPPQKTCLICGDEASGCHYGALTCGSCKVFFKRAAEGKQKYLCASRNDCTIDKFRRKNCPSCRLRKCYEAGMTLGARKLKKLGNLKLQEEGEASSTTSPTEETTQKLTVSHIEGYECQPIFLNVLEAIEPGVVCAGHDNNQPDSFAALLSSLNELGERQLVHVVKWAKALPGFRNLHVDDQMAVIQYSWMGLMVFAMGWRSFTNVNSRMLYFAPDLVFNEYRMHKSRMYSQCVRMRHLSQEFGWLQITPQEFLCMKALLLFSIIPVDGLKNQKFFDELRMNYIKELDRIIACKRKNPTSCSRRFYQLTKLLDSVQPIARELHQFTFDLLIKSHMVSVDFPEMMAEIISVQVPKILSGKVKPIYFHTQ
- measurement notes: Antagonism of compounds on nuclear translocation of androgen receptor (PathHunter NHR cell lines)
- cond: antagonist mode, agonist 6a-Fluorotestosterone 0.06 μM (EC80)
measured property: IC50
Respond with the figure and its unit, in that order.

// IC50 lookup, compound = CC1(C)C(=O)N(c2ccc(C#N)c(C(F)(F)F)c2)C(=S)N1c1cc(F)c2ncnc(OCCO)c2c1 , result: 6020 nM

// IC50 lookup, compound = CC1(C)C(=O)N(c2ccc(C#N)c(C(F)(F)F)c2)C(=S)N1c1cc(F)c2nc(C(F)F)cc(=O)n2c1 , result: 1690 nM

// IC50 lookup, compound = CCc1nc2c(F)cc(N3C(=S)N(c4ccc(C#N)c(C(F)(F)F)c4)C(=O)C3(C)C)cn2c(=O)c1F , result: 2570 nM

// IC50 lookup, compound = CC1(C)C(=O)N(c2ccc(C#N)c(C(F)(F)F)c2)C(=S)N1c1cc(F)c2nc(C(F)F)nc(OCCO)c2c1 , result: 1890 nM

// IC50 lookup, compound = COCc1cc(=O)n2cc(N3C(=S)N(c4ccc(C#N)c(C(F)(F)F)c4)C(=O)C3(C)C)cc(F)c2n1 , result: 4000 nM

// IC50 lookup, compound = CC1(C)C(=O)N(c2cnc(C#N)c(C(F)(F)F)c2)C(=S)N1c1cc(F)c2nc(C3CC3)nc(OCCO)c2c1 , result: 1150 nM

// IC50 lookup, compound = CCc1nc(OCCO)c2cc(N3C(=S)N(c4ccc(C#N)c(C(F)F)c4)C(=O)C3(C)C)ccc2n1 , result: 3670 nM

// IC50 lookup, compound = CC1(C)C(=O)N(c2ccc(C#N)c(C(F)(F)F)c2)C(=S)N1c1cc(F)c2nc(C3CC3)nc(OCCO)c2c1 , result: 2840 nM

// IC50 lookup, compound = CC(F)(F)c1nc(OCCO)c2cc(N3C(=S)N(c4ccc(C#N)c(C(F)(F)F)c4)C(=O)C3(C)C)cc(F)c2n1 , result: 1430 nM

// IC50 lookup, compound = CCOc1nc(OCCO)c2cc(N3C(=S)N(c4cnc(C#N)c(C(F)(F)F)c4)C(=O)C3(C)C)cc(F)c2n1 , result: 2410 nM

// IC50 lookup, compound = CCc1nc(OCC(N)=O)c2cc(N3C(=S)N(c4ccc(C#N)c(C(F)(F)F)c4)C(=O)C3(C)C)cc(F)c2n1 , result: 6760 nM

// IC50 lookup, compound = CCc1nc(OC2COC[C@@H]2O)c2cc(N3C(=S)N(c4ccc(C#N)c(C(F)(F)F)c4)C(=O)C3(C)C)cc(F)c2n1 (some centres unmarked) , result: 3080 nM

// IC50 lookup, compound = COc1cc(=O)n2cc(N3C(=S)N(c4ccc(C#N)c(C(F)(F)F)c4)C(=O)C3(C)C)cc(F)c2n1 , result: 1910 nM

// IC50 lookup, compound = CCc1cc(=O)n2cc(N3C(=S)N(c4cnc(C#N)c(C(F)(F)F)c4)C(=O)C3(C)C)cc(F)c2n1 , result: 2110 nM
